# PROCEDURE TEXT: self-splicing fitness, log relative to wild type (ln ratio); higher = more splicing; Tetrahymena group I intron in knt gene, E. coli kanamycin selection, DiMSum; sequences stand for … in CUCUCU…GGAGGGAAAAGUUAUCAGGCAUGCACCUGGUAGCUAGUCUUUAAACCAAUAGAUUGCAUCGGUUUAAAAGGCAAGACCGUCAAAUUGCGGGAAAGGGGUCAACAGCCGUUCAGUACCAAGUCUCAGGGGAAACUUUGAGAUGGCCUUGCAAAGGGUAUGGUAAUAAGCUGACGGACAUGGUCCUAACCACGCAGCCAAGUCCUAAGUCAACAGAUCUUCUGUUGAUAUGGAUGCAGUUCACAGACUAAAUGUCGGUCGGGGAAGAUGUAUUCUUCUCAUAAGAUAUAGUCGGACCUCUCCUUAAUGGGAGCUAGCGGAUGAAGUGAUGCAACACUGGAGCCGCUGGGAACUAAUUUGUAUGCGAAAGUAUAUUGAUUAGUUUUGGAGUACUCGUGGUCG;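 note: selection with 25 µg/mL kanamycin versus none on LB agar overnight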
# CONDITION DETAILS: 37 °C
Please mark 1 (yes) if the recorded self-splicing fitness (ln) is equal to or greater than -2, and 0 (no) if it falls below.

Exam item: decide whether the reported self-splicing fitness (ln) for `CUAAAGCAAUAUUACGACUA` is at least -2. 1 (yes)

Exam item: decide whether the reported self-splicing fitness (ln) for `GUCAAGCAAUAUUACGAUAU` is at least -2. 1 (yes)

Exam item: decide whether the reported self-splicing fitness (ln) for `CGGUAGCAAUAUUACGUAAA` is at least -2. 0 (no)

Exam item: decide whether the reported self-splicing fitness (ln) for `AUUCAGCAAUAUUACGAGAU` is at least -2. 1 (yes)

Exam item: decide whether the reported self-splicing fitness (ln) for `AGCUAGCAAUAUUACGUCUU` is at least -2. 1 (yes)

Exam item: decide whether the reported self-splicing fitness (ln) for `GAACAGCAAUAUUACGCUGC` is at least -2. 1 (yes)

* * *

# PROCEDURE TEXT: self-splicing fitness, log relative to wild type (ln ratio); higher = more splicing; Tetrahymena group I intron in knt gene, E. coli kanamycin selection, DiMSum; sequences stand for … in CUCUCU…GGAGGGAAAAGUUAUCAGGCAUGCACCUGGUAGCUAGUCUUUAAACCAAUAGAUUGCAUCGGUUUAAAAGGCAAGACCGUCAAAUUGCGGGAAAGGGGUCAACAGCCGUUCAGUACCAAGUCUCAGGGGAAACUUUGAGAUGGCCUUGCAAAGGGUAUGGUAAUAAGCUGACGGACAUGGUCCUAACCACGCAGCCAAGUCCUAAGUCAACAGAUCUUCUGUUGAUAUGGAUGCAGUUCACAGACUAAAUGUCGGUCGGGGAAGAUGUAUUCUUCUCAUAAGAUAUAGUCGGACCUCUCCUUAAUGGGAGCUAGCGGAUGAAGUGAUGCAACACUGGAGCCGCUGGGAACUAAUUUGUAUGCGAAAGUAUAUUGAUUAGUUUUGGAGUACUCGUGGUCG
# CONDITION DETAILS: 37 °C
Dear colleague, classification is by self-splicing fitness (ln), with ranges listed here: zone 1: < -2; zone 2: ≥ -2 and < -0.7; zone 3: ≥ -0.7

# count of solved cases: 5
>>> answer_label("CGGUAGCAAUAUUACGACAU")
"zone 2"
>>> answer_label("CUUCAGCAAUAUUACGCAUG")
"zone 3"
>>> answer_label("UUACAGCAAUAUUACGUGCU")
"zone 1"
>>> answer_label("GGGAAGCAAUAUUACGGGUU")
"zone 2"
>>> answer_label("UCCCAGCAAUAUUACGCUAG")
"zone 1"

Dear colleague, I would appreciate it if you could identify the bin for `GCUUAGCAAUAUUACGCGCA` and reply at your convenience. zone 3

Dear colleague, I would appreciate it if you could identify the bin for `UGAUAGCAAUAUUACGUCUG` and reply at your convenience. zone 3

Dear colleague, I would appreciate it if you could identify the bin for `CCAUAGCAAUAUUACGAGUU` and reply at your convenience. zone 1

Dear colleague, I would appreciate it if you could identify the bin for `GACGAGCAAUAUUACGGACA` and reply at your convenience. zone 3

Dear colleague, I would appreciate it if you could identify the bin for `GUGUAGCAAUAUUACGUAAU` and reply at your convenience. zone 3

Dear colleague, I would appreciate it if you could identify the bin for `GUUAAGCAAUAUUACGAUCU` and reply at your convenience. zone 3

Dear colleague, I would appreciate it if you could identify the bin for `GUGGAGCAAUAUUACGUUUU` and reply at your convenience. zone 1

Dear colleague, I would appreciate it if you could identify the bin for `UUUCAGCAAUAUUACGAAUC` and reply at your convenience. zone 2

Dear colleague, I would appreciate it if you could identify the bin for `GUCGAGCAAUAUUACGAAGU` and reply at your convenience. zone 2

Dear colleague, I would appreciate it if you could identify the bin for `AGAGAGCAAUAUUACGGCCC` and reply at your convenience. zone 2

Dear colleague, I would appreciate it if you could identify the bin for `CAUCAGCAAUAUUACGGGGG` and reply at your convenience. zone 2

Dear colleague, I would appreciate it if you could identify the bin for `AGCCAGCAAUAUUACGAGGA` and reply at your convenience. zone 1

Dear colleague, I would appreciate it if you could identify the bin for `UUCGAGCAAUAUUACGGAGC` and reply at your convenience. zone 1

Dear colleague, I would appreciate it if you could identify the bin for `CACAAGCAAUAUUACGCUUC` and reply at your convenience. zone 1

Dear colleague, I would appreciate it if you could identify the bin for `UUAAAGCAAUAUUACGAAAC` and reply at your convenience. zone 2

Dear colleague, I would appreciate it if you could identify the bin for `AAAGAGCAAUAUUACGGGAG` and reply at your convenience. zone 1

The measured values listed here are drawn from the supplement of paper PMC7877785.
